property measured: pIC50
API: returns pIC50 as number; meaning -log10 of concentration in mol/L.

Q: Report pIC50 from UniProt:P50172 testing of O=C(CN1C(=O)C2C3c4ccccc4C(c4ccccc43)C2C1=O)Nc1cccc(Cl)c1 (stereo unspecified)
Sequence (P50172 whole entry): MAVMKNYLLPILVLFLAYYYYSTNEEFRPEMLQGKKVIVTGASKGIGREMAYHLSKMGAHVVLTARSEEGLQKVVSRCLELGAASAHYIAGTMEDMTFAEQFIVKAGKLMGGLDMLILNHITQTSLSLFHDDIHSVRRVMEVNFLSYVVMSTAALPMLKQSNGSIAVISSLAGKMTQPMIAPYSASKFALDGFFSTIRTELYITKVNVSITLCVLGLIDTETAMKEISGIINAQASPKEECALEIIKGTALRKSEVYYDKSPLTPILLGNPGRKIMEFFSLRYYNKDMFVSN
A: 4.90

====

target: 11-beta-hydroxysteroid dehydrogenase type 2 (Mus musculus) (UniProt P51661); test: Inhibition of mouse 11beta-HSD2 at 10 uM
Sequence (P51661 whole entry): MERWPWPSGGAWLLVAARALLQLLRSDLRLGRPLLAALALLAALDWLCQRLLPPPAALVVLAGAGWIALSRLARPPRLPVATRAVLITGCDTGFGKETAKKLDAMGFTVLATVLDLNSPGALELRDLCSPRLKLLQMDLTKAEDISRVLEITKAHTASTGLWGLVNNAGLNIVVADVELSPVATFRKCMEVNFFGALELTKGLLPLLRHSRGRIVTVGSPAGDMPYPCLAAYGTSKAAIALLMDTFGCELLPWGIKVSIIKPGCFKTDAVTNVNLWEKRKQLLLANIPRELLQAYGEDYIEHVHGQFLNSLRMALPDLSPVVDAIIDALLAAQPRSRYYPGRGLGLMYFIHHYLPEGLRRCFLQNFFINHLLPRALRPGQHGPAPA
Quick rule for you: inhibition at 3% or higher means MET, lower means NOT MET.

Q: Entry O=C(CSc1nc2ccc(NC(=O)c3ccccc3Br)cc2s1)NCCc1ccccc1 : is its inhibition no less than 3%?
A: NOT MET

Q: Entry Cc1ccc(S(=O)(=O)N(CC(=O)N2CCCCCC2)c2cc(Cl)ccc2C)cc1 : is its inhibition no less than 3%?
A: NOT MET

Q: Entry O=C(CN1C(=O)C2C3c4ccccc4C(c4ccccc43)C2C1=O)Nc1cccc(Cl)c1 (stereo unspecified) : is its inhibition no less than 3%?
A: NOT MET

Q: Entry Cc1cc(NS(=O)(=O)c2ccc(NC(=O)c3ccc(C(=O)C(=O)c4ccccc4)cc3)cc2)nc(C)n1 : is its inhibition no less than 3%?
A: MET

Q: Entry CC(C)COC(=O)c1ccc(NC(=O)c2ccc3c(c2)-c2ccccc2C3=O)cc1 : is its inhibition no less than 3%?
A: MET

Q: Entry Cc1ccc(C(=O)COC(=O)C(Cc2ccccc2)N2C(=O)c3ccccc3C2=O)cc1 (stereo unspecified) : is its inhibition no less than 3%?
A: MET
